System: WT1 peptide loaded autologous APC
assay.procedure: Cr51 release assay, cytotoxic CTL response vs peptide loaded autologous APC
Assay type: cell-based, human
test.context: HLA allele A0201; 50:1 E:T
Where a SMILES comes first, the peptide text is derived from it.
measurement.name: Cytotoxic CTL response, % vs WT1 peptide loaded autologous APC

Record lookup: for WT1 peptide loaded autologous APC, what Cytotoxic CTL response, % vs WT1 peptide loaded autologous APC belongs to CC(C)C[C@H](NC(=O)[C@H](CO)NC(=O)CNC(=O)[C@H](Cc1ccc(O)cc1)NC(=O)[C@H](C)NC(=O)[C@@H](N)CO)C(=O)NCC(=O)NCC(=O)N1CCC[C@H]1C(=O)O [SEQ ID NO: 157] (H-SAYGSLGGP-OH; N-terminus and C-terminus assumed) ?
51%
